All values here come from paper PMC7558535.

experiment: Metabolic stability in human hepatocytes; assay type: in vitro ADME; conditions: pooled cryopreserved hepatocytes, 37 °C, 0-240 min
RECORDED ENDPOINT: half-life at 1 μM (h)
Provide the reading as a plain figure in h.

Could you tell me which half-life at 1 μM is on file for OC[C@H]1O[C@@H](c2cc(Cc3ccc(C4CC4)cc3)c(Cl)c3c2CCO3)[C@H](O)[C@@H](O)[C@@H]1O ? 14.4

###

experiment: Metabolic stability in mouse hepatocytes; format: in vitro ADME; details: pooled cryopreserved hepatocytes; mouse hepatocytes, 37 °C, 0-240 min
RECORDED ENDPOINT: half-life at 1 μM (h)
# unit: h | format: bare number

Quick one: half-life at 1 μM for OC[C@H]1O[C@@H](c2cc(Cc3ccc(C4CC4)cc3)c(Cl)c3c2CCO3)[C@H](O)[C@@H](O)[C@@H]1O ? 8.88

###

assay: Metabolic stability in dog hepatocytes; type: in vitro ADME; conditions: pooled cryopreserved hepatocytes; dog hepatocytes, 37 °C, 0-240 min
RECORDED ENDPOINT: half-life at 1 μM (h)
Only the number, expressed in h, is required.

Data request, read-out half-life at 1 μM, for OC[C@H]1O[C@@H](c2cc(Cc3ccc(C4CC4)cc3)c(Cl)c3c2CCO3)[C@H](O)[C@@H](O)[C@@H]1O 3.73

###

test: Metabolic stability in human hepatocytes; assay type: in vitro ADME; details: pooled cryopreserved hepatocytes
RECORDED ENDPOINT: CLint scaled at 1 μM (mL/min/kg)
Return type: number; implicit unit mL/min/kg.

Fill in the blank: the reported CLint scaled at 1 μM of OC[C@H]1O[C@@H](c2cc(Cc3ccc(C4CC4)cc3)c(Cl)c3c2CCO3)[C@H](O)[C@@H](O)[C@@H]1O is ____. 5.7

###

test: Metabolic stability in rat hepatocytes; format: in vitro ADME; conditions: pooled cryopreserved hepatocytes
RECORDED ENDPOINT: CLint scaled at 1 μM

Which value of CLint scaled at 1 μM has been reported for OC[C@H]1O[C@@H](c2cc(Cc3ccc(C4CC4)cc3)c(Cl)c3c2CCO3)[C@H](O)[C@@H](O)[C@@H]1O in the records? 9.8 mL/min/kg

###

Test: Metabolic stability in monkey hepatocytes
Assay type: in vitro ADME
Settings: pooled cryopreserved hepatocytes; monkey hepatocytes, 37 °C, 0-240 min
Protocol: To evaluate the metabolic stability of DWP16001 in human, dog, monkey, mouse, and rat hepatocytes, pooled cryopreserved hepatocytes were carefully thawed in recovery medium and resuspended in incubation medium (Krebs–Henseleit buffer for mouse, rat, and human; William’s E media for dog and monkey) to 0.5 × 10^6 cells/mL for mouse, 0.67 × 10^6 cells/mL for rat, and 1.0 × 10^6 cells/mL for dog, monkey, and human in accordance with the manufacturer’s protocols. […]
RECORDED ENDPOINT: half-life at 1 μM (h)
Unit h implied. Number only.

Which half-life at 1 μM is listed for OC[C@H]1O[C@@H](c2cc(Cc3ccc(C4CC4)cc3)c(Cl)c3c2CCO3)[C@H](O)[C@@H](O)[C@@H]1O ? 2.75
